Experiment: amyloid nucleation score (Sup35N fusion, yeast selection) (log enrichment); library NNK3; higher = more nucleation; inactive = no reads after selection;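 further: zero at mode of non-aggregating sequences after 7 days selection at 30°C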

| Substance | amyloid nucleation score |
| --- | --- |
| TSSNRVLVIPVELMIPWRF | -0.299 |
| YYQMRYCQWDAIQVENWVRR | inactive |
| SLPACKSGVKNTYVLYLTWN | 1.19 |
| TYLLFGSTLGLSQWVYLDVE | inactive |
| AQILYYLYYT | inactive |
| IGVIWRFVLWSGPRTDSQVS | inactive |
| KPVKTWNYLFWMCL | 2.49 |
| RCYVCRTMRACMVLAAKLEP | inactive |
| IPIVRTLNLLASTLTPLCR | inactive |
| GFFELYS | inactive |
| ESRKWAAEGPSFICTCLLSL | inactive |
| AYSSVLINLSEYTLGIAVPM | 0.062 |
| VCFRNAFFHCSQMRTCNRVI | 0.262 |
| IFCAKSIIGIPGTDPRCRPD | 1.5 |
| RNFARCRFNPPMTHHSFFNT | inactive |
| LQSEPVLSDTSMSGVVASYF | inactive |
| IISMVCED | 0.297 |
| MVSLHYVI | inactive |
| LLMLCRCKPYFFGFYLCWFR | inactive |
| FISRVMGSSR | inactive |
| CQTGRYRESALSVLARKLNA | inactive |
| YLNNWMSWRRSLRRHIEVVR | inactive |
| DLSRTSAVSVRKRVCVFSLH | inactive |
| FLFTFKIHPLGGMFGVLILS | inactive |
| TFVHAYTGWMEFVV | inactive |
| PFPRNGLFHLFWYGLCYMAL | inactive |

----------
Experiment: amyloid nucleation score (Sup35N fusion, yeast selection) (log enrichment); library NNK3; higher = more nucleation; inactive = no reads after selection
Threshold rule: amyloid nucleation score greater than or equal to 0.8 is y; below that, n.

| Sequence Code | Category |
| --- | --- |
| VSFEYTGEYLCSNVRATDLL | n |
| GSMSLIYYGLRRKVMGYVLS | n |
| YCSCMLTGNMGRSH | n |
| MVTLKQYLYSG | y |
| RCYVNYIRTYICAYCFAVNE | y |
| VMQQYLYNLCCL | y |

----------
Experiment: amyloid nucleation score (Sup35N fusion, yeast selection) (log enrichment); library NNK1; higher = more nucleation; inactive = no reads after selection
Threshold rule: amyloid nucleation score greater than or equal to 1 is Fulfilled; below that, Not fulfilled.

| Substance | Category |
| --- | --- |
| KVCLRRAAYYRVLVHSCHFR | Not fulfilled |
| NFHDEV | Not fulfilled |
| CVSFMVTFTIMRQLYNCKCR | Fulfilled |
| IKLFLRNIV | Not fulfilled |
| TTCSVVRDFYSLIFCTKCPY | Fulfilled |
| CCSRGLKVPDANRASKSGCE | Fulfilled |

----------
Experiment: amyloid nucleation score (Sup35N fusion, yeast selection) (log enrichment); library NNK1; higher = more nucleation; inactive = no reads after selection
// thresholds for amyloid nucleation score classes: LOW: < -0.3; MID: ≥ -0.3 and < 0.6; HIGH: ≥ 0.6

| Substance | Category |
| --- | --- |
| DCESVWSIKGNKPMLFDRIL | LOW |
| VILFYSR | HIGH |
| LYNLGHDSVGDLSFFCLRGW | LOW |
| FNWDGQFAVCMWKS | MID |
| QVRCAFVIRRSV | MID |
| LICQLGEPQFNKFHWICSLD | LOW |
| RSIRSIESNYYLRNVTFISR | HIGH |
| GLGTAYIGLCWHTIWHAAGV | HIGH |
| GSNGMRGLRWGL | LOW |
| TTRAHEVDTYLYFHFGVGRT | HIGH |
| TTALFWSRRPSFGDLYRGFN | HIGH |
| LDGTGWYCCQYSGGLYSLCG | MID |
| IMFYMTVDGCLSVEYIFR | LOW |
| DFVRMSRPHG | MID |
| CLRLVQEFTFMYTVVHGARC | HIGH |
| MGLFFERSVKCSLF | LOW |
| IDMCYWISVPAKNVHVIDIP | HIGH |
| WCYVYRSRRVSMTSWVLRTQ | MID |
| YLTWYNRYCVRYITNYHPMK | HIGH |
| AQNSWGGILSVTAGQEFYCL | LOW |
| EVDFNSSFTWSHMSSKCRMF | MID |
| GVGIFAIYWFTMPHVRPRVI | LOW |
| LCRMFRIVAVGYMDQRCRT | MID |
| LKYFYR | MID |
| VQGLIQVSVYDRVAGCWHRI | LOW |
| AFDIVDRSRYILY | MID |
| IFTFQLLFRNSQRSMYSSVL | HIGH |
| YNSFKAVNPLKVGLVYMLKL | MID |
| KPLILLCHLMGTMSTKCKDM | MID |
| AQQGIYCRCTVCGQ | HIGH |
| VDLILRRFEMRSDSLFGLWE | LOW |
| FFNDPA | LOW |
| FIGPRN | LOW |
| VKYLVIL | LOW |
| RKCWGSKEGVKKT | LOW |
| MFNKVSLSVWASFVWKIIIH | LOW |
| ITAWWQVSL | MID |
| QISRCILNNPRPCLSF | HIGH |
| CDIVNKSTGGLSTRALKIVY | MID |
| ALIFYRFLL | HIGH |
| ELLACGIKRRVVKTGVRTAY | LOW |
| IDKMELFSRSKHKWYMASAI | MID |
| WKLPWALSRPVKYRYHEVGR | MID |
| GVGVLLSYSELFDSTIEGPT | HIGH |
| EYFRSTCRRATLSDPSMMHH | MID |
| KSGTAFLFFKMI | MID |
| GAVIRRWVIGSGALRDSCND | MID |
| ISTCLRTSFYVDVGNMSFCN | MID |
| YAINMVYYV | HIGH |
| RYWYMTGMAMLNK | MID |
| TFFCTYTYLWLICIIGQYYF | HIGH |
| IFCGRIKQCSLASHCKLEWG | HIGH |
| DCYHLGQTIPISRFGLRTKL | HIGH |
| TDSAVRDWTRR | MID |
| AKMYLRTLYTSPLRLPLAPQ | LOW |
| VFGVPVTCGGRPVFLIKVVG | LOW |
| ASDMSCMQSNSYFNLWTYTM | HIGH |

----------
Experiment: amyloid nucleation score (Sup35N fusion, yeast selection) (log enrichment); library NNK1; higher = more nucleation; inactive = no reads after selection
Value Type: amyloid nucleation score

| Substance | Value Observed |
| --- | --- |
| SKVNISSYNSCFVRKGCQCR | 6.33 |
| ESNMGNGSRGIDV | 0.821 |
| INIGFMKGV | 0.416 |
| RTFFRFKMSPWCINDYIMMR | 0.222 |
| YFISVVFASGKGW | -0.387 |
| HHWNLIEHYMLDECMEHLNS | -0.183 |
| VVEIWR | 0.655 |
| DSIGVTH | -0.002 |
| NLMYAGIRLKGEICTNQVSF | 0.371 |
| IEGMCGDMVMTYYIFLDSCG | 1.07 |
| YTTIYLVIFSFC | 6.48 |
| KTYRAIQLSYRIPMKMFRFD | -0.3 |
| SSPTLLSWVKW | 0.99 |
| SMAGEFWSVLFFCESIWGGD | 4.83 |
| SGMCNIQPQTCQ | -0.351 |
| DSEDSNLSCLLYTQC | 0.153 |
| RVIILMFTHRTCNS | -1.07 |
| PFCSGALLARLG | 0.047 |
| VSVFLGSGHRRARGW | -0.482 |
| ILKEIMIGGRDRTDDWKSHG | -1.3 |
| RVMVSGNAPSFVLNGGVSVR | 0.874 |
| TAWHLSMNALGNSSLDFKGR | 1.51 |
| PQPYTRNIERLAYVFTLDMP | -0.21 |
| FVGLVDN | 0.051 |
| RHVNEAESAGEGTGNYSRYS | -0.206 |
| ATNSEAARYLS | 0.996 |
| MPVFSFLWPMKDMPHKVLS | 0.364 |
| FTSLYSNILHKSTCLQ | 0.288 |
| ILCSLYYICT | 2.74 |
| GKRSDIVLMLLIEMGHMLSQ | 3.1 |
| PRNVFMSKTNNHFQRAFSVT | 0.925 |
